The reported measurements were obtained from the supplement of paper PMC13380429.

test system: U2OS; assay: cell viability relative to DMSO; higher = less toxic; details: 72 h; 1 nM
Known cell viability of a selection of molecules
Your answer is read as %, so omit the unit and give the number.

>  <molecule>
COC(=O)c1cc(OC)c2c(c1-c1c(C(=O)OC)cc(OC)c3c1OCO3)OCO2 [bifendate]

>  <tested_system>
U2OS

>  <cell viability / %>
99.3

$$$$
>  <molecule>
CC(C)=CCC/C(C)=C/CC/C(C)=C/CC[C@]1(C)CCc2cc(O)cc(C)c2O1

>  <tested_system>
U2OS

>  <cell viability / %>
97.5

$$$$
>  <molecule>
Nc1ccc([As](=O)(O)O)cc1

>  <tested_system>
U2OS

>  <cell viability / %>
107

$$$$
>  <molecule>
Cc1ccc(F)cc1C(=O)Nc1ccc(C(=O)N2Cc3cccn3Cc3ccccc32)c(Cl)c1

>  <tested_system>
U2OS

>  <cell viability / %>
101

$$$$
>  <molecule>
NCCCC[C@H](N[C@@H](CCc1ccccc1)C(=O)O)C(=O)N1CCC[C@H]1C(=O)O

>  <tested_system>
U2OS

>  <cell viability / %>
102

$$$$
>  <molecule>
CC[C@H](C)[C@@H]([C@@H](CC(=O)N1CCC[C@H]1[C@H](OC)[C@@H](C)C(=O)N[C@@H](Cc1ccccc1)c1nccs1)OC)N(C)C(=O)[C@@H](NC(=O)[C@H](C(C)C)N(C)C)C(C)C

>  <tested_system>
U2OS

>  <cell viability / %>
35.8

$$$$
>  <molecule>
NCC(O)(CS(=O)(=O)O)c1ccc(Cl)cc1 (stereo unspecified) [2-hydroxysaclofen]

>  <tested_system>
U2OS

>  <cell viability / %>
104

$$$$
>  <molecule>
CCCC(C(=O)OCCN(CC)CC)(c1ccccc1)c1ccccc1

>  <tested_system>
U2OS

>  <cell viability / %>
93

$$$$

[in] Returns the measured cell viability for the input molecule. Input: CC(C)NC(=O)COc1cccc(-c2nc(Nc3ccc4[nH]ncc4c3)c3ccccc3n2)c1
[out] 97.2

[in] Returns the measured cell viability for the input molecule. Input: CC(=O)Nc1ccc(OC[C@](C)(O)C(=O)Nc2ccc([N+](=O)[O-])c(C(F)(F)F)c2)cc1
[out] 97.9

[in] Returns the measured cell viability for the input molecule. Input: O=C(CCCCCCC(=O)NO)NO
[out] 104

[in] Returns the measured cell viability for the input molecule. Input: CCN[C@H]1CN(CCCOC)S(=O)(=O)c2sc(S(N)(=O)=O)cc21 [brinzolamide]
[out] 96.6

[in] Returns the measured cell viability for the input molecule. Input: CC(=O)OCC(=O)[C@@]12N=C(C)O[C@@H]1C[C@H]1[C@@H]3CCC4=CC(=O)C=C[C@]4(C)[C@H]3[C@@H](O)C[C@@]12C
[out] 99.7

[in] Returns the measured cell viability for the input molecule. Input: CCCCCCCC/C=C\CCCCCCCC(=O)NCc1ccc(O)c(OC)c1
[out] 102

[in] Returns the measured cell viability for the input molecule. Input: Nc1ccncc1N
[out] 97.7

[in] Returns the measured cell viability for the input molecule. Input: COc1ccccc1OCC(O)CO (stereo unspecified)
[out] 105

* * *

tested on: HepG2; assay: drug sensitivity score (DSS) for viability; higher = more toxic; extreme values may be limits of the assay; conditions: 72 h
value_type: drug sensitivity score
# output: bare number, no unit

>  <input_smiles>
CC[C@H](C)[C@@H]([C@@H](CC(=O)N1CCC[C@H]1[C@H](OC)[C@@H](C)C(=O)N[C@@H](Cc1ccccc1)c1nccs1)OC)N(C)C(=O)[C@@H](NC(=O)[C@H](C(C)C)N(C)C)C(C)C

>  <tested_system>
HepG2

>  <drug sensitivity score>
34

$$$$

[in] API: value(readout= drug sensitivity score, system= HepG2, query= Cc1cc(C(C)(C)C)cc(C)c1CC1=NCCN1 )
[out] 0

[in] API: value(readout= drug sensitivity score, system= HepG2, query= Nc1c(CC(=O)O)cccc1C(=O)c1ccccc1 )
[out] 0

[in] API: value(readout= drug sensitivity score, system= HepG2, query= O=C(c1ccc(-c2ccc(Cl)cc2)o1)N(Cc1ccccn1)c1ccc(N2CCNCC2)cc1 )
[out] 1.7

[in] API: value(readout= drug sensitivity score, system= HepG2, query= Cc1cc(NCCO)nc(-c2ccc(Br)cc2)n1 )
[out] 0
